Test system: NCI-H460 lung
Assay: NCI-60 one-dose screen, 48 h
Details: 10 µM unless noted
Compounds without any hit were thinned out: in the full panel of roughly 83,000, 20% have a hit. Calls of active or inactive are those of the source. The calls were made as follows: active = growth percent below 10; inactive = the rest.
I would appreciate it if you answered using one of these outcomes: T for active, F for inactive

- COc1ccc(C2c3ccc4ccccc4c3Oc3nc(C)[nH]c(=O)c32)cc1 (stereo unspecified): F
- CCOc1c(C#N)nnc2c(C#N)c(NC(=O)c3ccccc3)nn12: F
- COc1ccc(NC(=O)c2nc(-c3cc(OC)c(OC)c(OC)c3)n(-c3cccc4ccccc34)n2)cc1OC: F

Query string: Record request — test call for COCN1CCC2N(COC)CCC3N(COC)CCC1N23 (stereo unspecified)
Result string: F

Query string: Also COc1ccccc1NC(=O)N/C(N)=N/c1nc2ccccc2s1 ?
Result string: F

Query string: Also Cc1cccc(NC(=O)CSc2nc3ccccc3[nH]2)c1 ?
Result string: F

Query string: Also CC(C)(C)C(CCc1ccc(Cl)cc1)N1CCN(C2CCCCC2)CC1 (stereo unspecified) ?
Result string: F

Query string: Also CCN(CC)CCn1nc2c3c(cccc3c1=O)-c1ccccc1-2 ?
Result string: T

Query string: Also COc1cc2c(cc1-c1c(C)noc1C)ncc1nc(C3CCC(F)(F)CC3)n(C3CCC(OC(F)F)CC3)c12 (stereo unspecified) ?
Result string: F

Query string: Also O=C1/C(=C/c2ccc(Br)cc2)C=C(c2ccccc2)N1CCc1ccccc1 ?
Result string: F

Query string: Also Cc1c(C)c2c(c(C)c1OCC(=O)O)CC[C@@](C)(CCC[C@@H](C)CCC[C@@H](C)CCCC(C)C)O2 ?
Result string: T

Query string: Also COC(=O)[C@]12CC[C@@H](C)[C@H](C)[C@@H]1C1=CC[C@@H]3[C@@]4(C)C(C=O)=C[C@@](C)(COC(=O)c5ccco5)C4=CC[C@@]3(C)[C@]1(C)CC2 ?
Result string: T

Query string: Also Cc1nc2ccccc2n1CC1NC(=O)NC1=O (stereo unspecified) ?
Result string: F

Query string: Also NS(=O)(=O)c1cnccc1Sc1ccncc1S(N)(=O)=O ?
Result string: F

Query string: Also Cn1c(=O)c2c(nc(Cl)n2CCl)n(C)c1=O ?
Result string: F

Query string: Also COc1ccc2c(c1)O/C(=C\c1cccc(OCC(=O)Nc3nc(C)c(C)s3)c1)C2=O ?
Result string: F

Query string: Also Fc1cnc(NC2CC2)nc1-c1cnc2ccc(N3CCOCC3)cn12 ?
Result string: T

----------
Tested on: MDA-MB-435 melanoma
Test: NCI-60 one-dose screen, 48 h
Settings: 10 µM unless noted
This is part of a sample that, as a whole, favours compounds with a hit. Of some 83,000 tested, about 20% had one in any assay. Activity calls are given as the source filed them. How the source made its calls: active means growth percent below 10; inactive means the rest.
I would appreciate it if you answered using one of these outcomes: Y for active, N for inactive

Check out these entries, answers already filled in.
* COc1ccc(-c2nc(SCCC(C)C)nc(N/N=C\c3cccc(Cl)c3)c2C#N)cc1 | N
* CCc1ccccc1-n1c(N)c(C#N)c(-c2ccc(N(C)C)cc2)c(C#N)c1=O | N
* O=C(Nc1cccc(Cl)c1)c1cc(N=Nc2ccc([N+](=O)[O-])cc2Cl)ccc1O | N
* CCCCC1CCCCN1C(=O)OCC (stereo not given) | N
* Cc1cccc(NC(=O)N/C(N)=N/c2nc(C)c(C)s2)c1 | Y

Query string: Record request — test call for COC1=C(OC)C(=O)C(OC)=C(OC)C1=O
Result string: N

Query string: Also COc1cc(/C=N/NC(=O)Cn2c(C(C)C)nc3ccccc32)ccc1O ?
Result string: N

Query string: Also N#Cc1c2c(nn(-c3ccccc3)c1=O)C(O)=C([N+](=O)[O-])C(c1ccccc1)C2 (stereo not given) ?
Result string: N

----------
System: NCI/ADR-RES ovarian
Test: NCI-60 one-dose screen, 48 h (100 = growth as untreated, 0 = no growth, -100 = all killed)
Conditions: 10 µM unless noted
About 83,000 compounds went through this panel and 20% of them were active in at least one assay; those are over-represented in the sample as a whole.
The following ranges of growth define the classes used here: low value = under 30%, medium value = from 30% up to 90%, high value = 90% and over

Check out these entries, answers already filled in.
- c1c[nH]c(CNC2CCCCC2)c1: high value
- Cc1cc(NCc2cc(Nc3ccnc4cc(Cl)ccc34)ccc2F)nc(N2CCCC2)n1: low value
- O=C(COc1ccc(/C=C2\Oc3ccccc3C2=O)cc1)Nc1nc2c(s1)CCCC2: medium value
- C[n+]1cc2cc(C(N)=O)[nH]c3c(=N)c(Cl)c(N)c1c23: medium value
- Cc1cc(=O)oc2c1ccc1oc(C#N)c(C)c12: high value

Query string: Please report the category associated with O=C(CSc1nnc(-c2ccc(NC(=O)c3cccnc3)cc2)o1)N[C@@H](Cc1ccc(O)cc1)C(=O)O , nothing else.
Result string: high value

Query string: Also COc1cc(C(=O)/C=C/c2c(C(F)(F)F)nc3sccn23)cc(OC)c1OC ?
Result string: low value

Query string: Also C=C1C(=O)O[C@H]2[C@H]1CC/C(COC(=O)C(=O)c1c[nH]c3ccccc13)=C\CC[C@@]1(C)O[C@@H]21 ?
Result string: low value

----------
Tested on: OVCAR-8 ovarian
Assay: NCI-60 one-dose screen, 48 h (100 = growth as untreated, 0 = no growth, -100 = all killed)
Settings: 10 µM unless noted
Compounds without any hit were thinned out: in the full panel of roughly 83,000, 20% have a hit.
Answer not satisfied if growth is under 20%, and satisfied if it is 20% or more.

Check out these entries, answers already filled in.
- COc1ccc2c(c1)C(=O)/C(=C/c1ccc(OCC(=O)Nc3nccs3)cc1)O2: not satisfied
- C=C1C(=O)O[C@H]2[C@H]1CC/C(COC(=O)C(=O)c1c[nH]c3ccc(OC)cc13)=C\CC[C@@]1(C)O[C@@H]21: not satisfied
- COc1cc2nc(Cl)nc(Nc3ccc(S(=O)(=O)Nc4nccs4)cc3)c2cc1OC: satisfied

Could you now consider this next compound?
Query string: Tell me whether growth is at least 20% here: O=C(COc1ccc(/C=C2\Oc3ccccc3C2=O)cc1)c1ccc(Cl)cc1
Result string: satisfied

----------
Tested on: NCI-H23 lung
Assay: NCI-60 one-dose screen, 48 h (100 = growth as untreated, 0 = no growth, -100 = all killed)
Conditions: 10 µM unless noted
Method: Growth inhibition of the NCI-H23 human Non-Small Cell Lung tumor cell line is measured as a screen for anti-cancer activity. Cells are grown in 96 well plates and exposed to the test compound for 48 hours. Compounds are tested at a single concentration, which is 10^-5 M for most compounds. The reported endpoint is percent growth (GI% or GIPRCNT), where numbers from 0 - 100% represent growth inhibition, and numbers from -100% - 0 represent cell death. […]
The panel holds about 83,000 compounds, 20% with a hit somewhere; the sample as a whole holds those more often.
recorded.metric: growth (%)
Reply with just the number (in %).

Before answering, review these 5 worked examples.
• Cc1ccc(CCC(=O)Nc2ncc(Cc3cc(Cl)ccc3Cl)s2)o1 = 31.9
• O=C(c1ccccc1)c1c(/C=C/c2ccccc2)nc2ccccc2c1/C=C/c1ccc(Br)cc1 = 94.5
• Cc1ccc(/C=C/c2c(C(=O)/C=C/c3ccc(C(F)(F)F)cc3)c(C)nc3ccccc23)cc1 = -31.3
• CCCCc1ccc(Nc2ccc(Nc3ccc(CCCC)cc3S(=O)(=O)O)c3c2C(=O)c2ccccc2C3=O)c(S(=O)(=O)O)c1 = 91.3
• COc1ccc(-c2[nH]c(=S)n(C(CC3(C)NCC(=O)N3n3c(-c4ccccc4)cc(C)nc3=S)c3ccc(OC)cc3)c(=O)c2Br)cc1 (centres undefined) = 70.8

Moving on to the next molecule.
Query string: Quick check: growth of CN1CCN(CCCOc2ccc3nc(Nc4ccc(F)c(F)c4)ccc3c2)CC1 ?
Result string: 51.5

----------
System: A549/ATCC NSCLC
Assay: NCI-60 one-dose screen, 48 h
Conditions: 10 µM unless noted
The panel holds about 83,000 compounds, 20% with a hit somewhere; the sample as a whole holds those more often. Calls of active or inactive are those of the source. Rule for the calls: active = growth percent below 10; inactive = the rest.
I would appreciate it if you answered using one of these outcomes: active, inactive

Check out these entries, answers already filled in.
- COc1ccc2c(c1)O/C(=C/c1ccc(OCC(=O)c3ccccc3)cc1)C2=O: inactive
- COc1cc(C2NC(=O)c3ccccc3N2)ccc1OCCCCCOc1c(OC)cc(C2=NOC(c3cc(OC)c(OC)c(OC)c3)C2)cc1OC (centres undefined): inactive
- COC(=O)[C@]12CC[C@@H](C)[C@H](C)[C@@H]1C1=CC[C@@H]3[C@@]4(C)C(C=O)=C[C@@](C)(COC(C)=O)C4=CC[C@@]3(C)[C@]1(C)CC2: active

Could you now consider this next molecule?
Query string: Record request — test call for COc1ccc(-c2c(N)n[nH]c2-c2ccc(Cl)cc2O)cc1OC
Result string: inactive
